System: KCNQ channels
Experiment: Thallium flux assay for KCNQ channel openers
Assay type: cell-based
Conditions: thallium flux, 10 point concentration series; HEK-293 cells stably transfected with a KCNQ family member
molecules and their reported EC50
assay_metric: EC50

>  <molecule>
CCN(CC)Cc1cccnc1-c1nc(C(F)(F)F)c(C(=O)NC(C)c2cccc(OC(F)(F)F)c2)s1 (stereo not shown)

>  <reported_measurement>
0.05 to 1 µM

$$$$
>  <molecule>
COc1ccc(-c2nc(C(F)(F)F)c(C(=O)NC(C)c3cccc(OC(F)(F)F)c3)s2)cc1OC (stereo not shown)

>  <reported_measurement>
0.05 to 1 µM

$$$$
>  <molecule>
COc1ccc(-c2nc(C(F)(F)F)c(C(=O)NC(C)c3cccc(OC(F)(F)F)c3)s2)cc1 (stereo not shown)

>  <reported_measurement>
1 to 20 µM

$$$$
>  <molecule>
COc1ccc(-c2nc(C(F)(F)F)c(C(=O)N[C@@H](C)c3cccc(N4CCOCC4)c3)s2)c(OC)c1

>  <reported_measurement>
1 to 20 µM

$$$$
>  <molecule>
CCN(Cc1cccnc1-c1nc(C(F)(F)F)c(C(=O)N[C@@H](C)c2cccc(-c3cccnc3)c2)s1)C(C)C

>  <reported_measurement>
1 to 20 µM

$$$$
>  <molecule>
C[C@H](NC(=O)c1sc(-c2ncccc2CN2CCOCC2)nc1C(F)(F)F)c1cccc(-c2cccnc2)c1

>  <reported_measurement>
0.05 to 1 µM

$$$$
>  <molecule>
COc1cccc([C@H](C)NC(=O)c2sc(-c3cc(F)ccc3OC)nc2C(F)(F)F)c1

>  <reported_measurement>
0.05 to 1 µM

$$$$

====

Tested on: KCNQ channels
Assay: Thallium flux assay for KCNQ channel openers
Assay type: cell-based
Conditions: thallium flux, 10 point concentration series; HEK-293 cells stably transfected with a KCNQ family member
Method: Thallium Flux Assay for KCNQ channel Openers. The thallium assay is a modification of that published by Weaver and is referenced in its entirety (Weaver, C. D. WO 02/31508, 2002). […] For generating EC50 values, compounds were serially diluted in 1:3 volume increments to produce a 10 point concentration series. EC50 values were calculated by fitting the resulting amplitudes to a single-site logistic equation. […]
assay_metric: EC50

>  <compound>
CC(NC(=O)c1sc(-c2ccccc2F)nc1C(F)(F)F)c1cccc(N(C)C)c1 (stereo not drawn)

>  <assay_metric>
EC50

>  <reported_measurement>
0.05 to 1 µM

$$$$
>  <compound>
CCN(CC)Cc1cccc(C(C)NC(=O)c2sc(-c3cccc4ccccc34)nc2C(F)(F)F)c1 (stereo not drawn)

>  <assay_metric>
EC50

>  <reported_measurement>
1 to 20 µM

$$$$
>  <compound>
CCN(Cc1ccncc1)Cc1ccccc1-c1nc(C(F)(F)F)c(C(=O)NCc2cccc(OC(F)(F)F)c2)s1

>  <assay_metric>
EC50

>  <reported_measurement>
0.05 to 1 µM

$$$$
>  <compound>
COc1ccc(-c2nc(C(F)(F)F)c(C(=O)NC(C)c3cccc(OC(F)(F)F)c3)s2)c(OC)c1 (stereo not drawn)

>  <assay_metric>
EC50

>  <reported_measurement>
0.05 to 1 µM

$$$$
>  <compound>
COc1ccc(-c2nc(C(F)(F)F)c(C(=O)NC(C)c3cccc(CN4CCCC4)c3)s2)cc1OC (stereo not drawn)

>  <assay_metric>
EC50

>  <reported_measurement>
1 to 20 µM

$$$$
>  <compound>
CC(NC(=O)c1sc(-c2ccccc2Cl)nc1C(F)(F)F)c1cccc(OC(F)(F)F)c1 (stereo not drawn)

>  <assay_metric>
EC50

>  <reported_measurement>
0.05 to 1 µM

$$$$
>  <compound>
COc1ccc(F)cc1-c1nc(C(F)(F)F)c(C(=O)NC(C)c2cccc(OC(F)(F)F)c2)s1 (stereo not drawn)

>  <assay_metric>
EC50

>  <reported_measurement>
0.05 to 1 µM

$$$$
>  <compound>
COc1ccc(F)cc1-c1nc(C(F)(F)F)c(C(=O)NC(C)c2cccc(C(F)(F)F)c2)s1 (stereo not drawn)

>  <assay_metric>
EC50

>  <reported_measurement>
0.05 to 1 µM

$$$$
>  <compound>
CC(NC(=O)c1sc(-c2ccccc2Cl)nc1C(F)(F)F)c1cccc(CN2CCOCC2)c1 (stereo not drawn)

>  <assay_metric>
EC50

>  <reported_measurement>
1 to 20 µM

$$$$
>  <compound>
CC(NC(=O)c1sc(-c2ccc(N3CCOCC3)cc2)nc1C(F)(F)F)c1cccc(OC(F)(F)F)c1 (stereo not drawn)

>  <assay_metric>
EC50

>  <reported_measurement>
0.05 to 1 µM

$$$$
>  <compound>
CCN(CC)Cc1ccccc1-c1nc(C(F)(F)F)c(C(=O)N[C@@H](C)c2cccc(OC)c2)s1

>  <assay_metric>
EC50

>  <reported_measurement>
0.05 to 1 µM

$$$$
>  <compound>
CCN(Cc1ccncc1)Cc1cccnc1-c1nc(C(F)(F)F)c(C(=O)N[C@@H](C)c2cccc(N3CCOCC3)c2)s1

>  <assay_metric>
EC50

>  <reported_measurement>
0.05 to 1 µM

$$$$
>  <compound>
C[C@H](NC(=O)c1sc(-c2ccccc2Cl)nc1C(F)(F)F)c1cccc(N2CCOCC2)c1

>  <assay_metric>
EC50

>  <reported_measurement>
0.05 to 1 µM

$$$$
>  <compound>
COc1ccccc1-c1nc(C(F)(F)F)c(C(=O)NC(C)c2cccc(N(C)Cc3ccco3)c2)s1 (stereo not drawn)

>  <assay_metric>
EC50

>  <reported_measurement>
< 0.05 µM

$$$$
>  <compound>
CCN(Cc1ccncc1)Cc1cccnc1-c1nc(C(F)(F)F)c(C(=O)N[C@@H](C)c2cccc(N3C[C@@H](C)O[C@@H](C)C3)c2)s1

>  <assay_metric>
EC50

>  <reported_measurement>
0.05 to 1 µM

$$$$
